Where do the numbers come from? From the supplement of paper PMC11061612.

Overview of recorded combination Emax for various compounds
# System: SK-HEP-1 (Hepatocellular Carcinoma)
# experiment: combination Emax (second highest fraction inhibited in the dose matrix, 72 h); higher = more inhibition; extreme values may be limits of the assay
test readout: combination Emax

{"columns": ["compound", "test system", "test readout", "observed value"],
 "data": [
  ["Cc1nc(Nc2ncc(C(=O)Nc3c(C)cccc3Cl)s2)cc(N2CCN(CCO)CC2)n1 [Dasatinib] + CC(=O)Nc1cccc(-n2c(=O)n(C3CC3)c(=O)c3c(Nc4ccc(I)cc4F)n(C)c(=O)c(C)c32)c1 [Trametinib] (first compound max 2 µM, 7x7, partner max 1 µM)", "SK-HEP-1 (Hepatocellular Carcinoma)", "combination Emax", 0.325],
  ["COc1nnc2ccc(N3CCC(c4ccc(OCCN5CCN(C)C(=O)[C@H]5C)cc4)CC3)nn12 [AZD5153] + Cn1cnc2c(F)c(Nc3ccc(Br)cc3Cl)c(C(=O)NOCCO)cc21 [Selumetinib] (first compound max 1 µM, 7x7, partner max 10 µM)", "SK-HEP-1 (Hepatocellular Carcinoma)", "combination Emax", 0.234]
]}
